target: pooled human IgG (human IgG1, 2, 3 and 4) (human); experiment: cell-based or functional assay; also: test concentration or dose not given here
property measured: Enzyme Activity Endpoint Assay: Fab′2 (ng/µL)
Your answer should be a plain number; it is taken to be in ng/µL.

For the binder PRT-280 (enzyme) MVTSVWTKGVTPPAKFTQGEDVFHAPYVANQGWYDITKTFNGKDDLLCGAATAGNMLHWWFDQNKEKIEAYLKKHPDKQKIMFGDQELLDVRKVINTKGDQTNSELFNYFRDKAFPNLSARRIGVMPDLVLDMFINGYYLNVYKTQTTDVNRTYQEKDRRGGIFDAVFTRGDQSKLLTSRHDFKEKNLKEISDLIKKELTEGKALGLSHTYANVGINHVINLWGADFDSNGNLKAIYVTDSDSNASIGMKKYFVGVNSSGKVAISAKEIKEDNIGAQVLGLFTLSTGQDSWNQTN , give its measured Enzyme Activity Endpoint Assay: Fab′2 value.
423
